- Tested on: K24384-001-R-PDC complex spheroids, viability;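 further: spheroids exposed to compounds for seven days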
- protocol-summary: Anticancer human tumor K24384-001-R-PDC patient-derived pancreatic adenocarcinoma cell line growth inhibition [GQUAD]
- measurement-setup: second compound 0.1 µM; first compound 0.316 µM; active compounds read low
endpoint: viability, T/C (%)
Give bare numbers, in %.

As a guide, the following entries are already answered.
compound	result-unit	data-value
CC1COCCN1c1cc(C2(O)CC3CCC(C2)O3)c2cnn(-c3ccn[nH]3)c2n1 (stereo unspecified) + Cc1cnc(CNC(=O)c2c(=O)c3ccc(N4CCCN(C)CC4)nc3n3c2sc2ccccc23)cn1	%	31.1
O=c1[nH]cc(F)c(=O)[nH]1 + Cc1cnc(CNC(=O)c2c(=O)c3ccc(N4CCCN(C)CC4)nc3n3c2sc2ccccc23)cn1	%	69.5
CC[C@@]1(O)C(=O)OCc2c1cc1n(c2=O)Cc2cc3c(CN(C)C)c(O)ccc3nc2-1 + Cc1[nH]c2ccc(F)cc2c1-c1nc2c3cccnc3c3ncccc3c2[nH]1	%	49
CC1COCCN1c1cc(C2(O)CC3CCC(C2)O3)c2cnn(-c3ccn[nH]3)c2n1 (stereo unspecified) + Cc1[nH]c2ccc(F)cc2c1-c1nc2c3cccnc3c3ncccc3c2[nH]1	%	36.4
O=c1[nH]cc(F)c(=O)[nH]1 + Cc1[nH]c2ccc(F)cc2c1-c1nc2c3cccnc3c3ncccc3c2[nH]1	%	86.8

Please look at the following compound next.
Input: # lookup: viability, T/C of CCCS(=O)(=O)Nc1ccc(F)c(C(=O)c2c[nH]c3ncc(-c4ccc(Cl)cc4)cc23)c1F + Cc1cnc(CNC(=O)c2c(=O)c3ccc(N4CCCN(C)CC4)nc3n3c2sc2ccccc23)cn1
Output: 63.4
